Each entry below carries its reported Cmax.
# METHOD_NOTES: in vivo
# ASSAY_SETUP: male, Sprague-Dawley, rat, po, 30 mg/kg
A number alone suffices; assume ng/mL.

O=C(O)c1cn(C2CC2)c2cc(N3CCN(CC4CCOc5cc(Cl)ccc5C4=O)CC3)c(F)cc2c1=O (centres unmarked) [Compound 6]	2360

Now for the molecule whose Cmax we want.
Quote Cmax reported for COc1ccc2c(c1)CCC(CN1CCN(c3cc4c(cc3F)c(=O)c(C(=O)O)cn4C3CC3)CC1)C2=O (centres unmarked) [Compound 1] please. 10600

* * *

# METHOD_NOTES: in vivo
# ASSAY_SETUP: male, Sprague-Dawley, rat, po, 30 mg/kg
Recorded AUC by entry
Write down the numeric answer in ng·h/mL and omit the unit.

COc1ccc2c(c1)CCC(CN1CCN(c3cc4c(cc3F)c(=O)c(C(=O)O)cn4C3CC3)CC1)C2=O (centres unmarked)	85800

Could you now look at the following compound, please?
Quote AUC reported for O=C(O)c1cn(C2CC2)c2cc(N3CCN(CC4CCOc5cc(Cl)ccc5C4=O)CC3)c(F)cc2c1=O (centres unmarked) please. 7400
